Form field: pKi (one value per entry).
# targetDesc: human 11β-HSD1 (Homo sapiens, UniProt P28845)
# Construct: truncated (24-287aa) human 11β-HSD1 enzyme
# Sequence (P28845 24-287): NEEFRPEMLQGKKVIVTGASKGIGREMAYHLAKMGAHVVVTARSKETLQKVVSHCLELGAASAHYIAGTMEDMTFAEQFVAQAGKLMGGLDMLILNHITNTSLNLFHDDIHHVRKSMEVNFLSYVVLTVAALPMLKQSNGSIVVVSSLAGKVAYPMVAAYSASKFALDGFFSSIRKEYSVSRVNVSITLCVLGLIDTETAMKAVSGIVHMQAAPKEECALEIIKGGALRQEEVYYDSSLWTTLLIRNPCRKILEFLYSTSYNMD
# assayInfo: Human 11β-HSD1 enzymatic SPA assay
# protocolConditions: truncated (24-287aa) human 11β-HSD1, apparent Ki from IC50 by Cheng-Prusoff
pKi: −log10 of the molar value.
observedProperty: pKi

- compound: "CC(C)(Oc1ccc(Cl)cc1F)/C(=N\\C#N)NC1C2CC3CC1CC(C(N)=O)(C3)C2 (stereo not shown) [Example 74]"
  targetDesc: "human 11β-HSD1 (Homo sapiens, UniProt P28845)"
  result: "≥ 8.00"
- compound: "CC(C)(Oc1ccc(F)cc1Cl)/C(=N\\C#N)NC1C2CC3CC1CC(S(C)(=O)=O)(C3)C2 (stereo not shown) [Example 18]"
  targetDesc: "human 11β-HSD1 (Homo sapiens, UniProt P28845)"
  result: "7.00 to 8.00"
- compound: "N#C/N=C(\\Cc1ccccc1F)N[C@@H]1[C@@H]2C[C@@H]3C[C@H]1C[C@@](O)(C3)C2 [Example 5]"
  targetDesc: "human 11β-HSD1 (Homo sapiens, UniProt P28845)"
  result: "< 6.00"
- compound: "CC(C)(OCc1ccc(C(F)(F)F)cc1)C(=NC#N)NC1C2CC3CC1CC(C#N)(C3)C2 (stereo not shown) [Example 27]"
  targetDesc: "human 11β-HSD1 (Homo sapiens, UniProt P28845)"
  result: "≥ 8.00"
- compound: "CC(C)(Oc1ccccc1)C(=NC#N)NC1C2CC3CC1CC(O)(C3)C2 (stereo not shown) [Example 49]"
  targetDesc: "human 11β-HSD1 (Homo sapiens, UniProt P28845)"
  result: "7.00 to 8.00"
- compound: "Cc1c(Cl)cccc1S(=O)(=O)N1CCC[C@H](C(=NC#N)NC2CCCCC2)C1 [Example 35]"
  targetDesc: "human 11β-HSD1 (Homo sapiens, UniProt P28845)"
  result: "< 6.00"
- compound: "CC(C)(Oc1ccc(Cl)cc1)C(=NC#N)NC12CC3CC(CC(C3)C1)C2 [Example 43]"
  targetDesc: "human 11β-HSD1 (Homo sapiens, UniProt P28845)"
  result: "7.00 to 8.00"
- compound: "CC(C)(Oc1ccccc1)/C(=N\\C#N)NC1C2CC3CC1CC(S(C)(=O)=O)(C3)C2 (stereo not shown) [Example 64]"
  targetDesc: "human 11β-HSD1 (Homo sapiens, UniProt P28845)"
  result: "≥ 8.00"
- compound: "COC(=O)C12CC3CC(C1)C(NC(=S)C(C)(C)N1CCN(c4ccc(C(F)(F)F)cn4)CC1)C(C3)C2 (stereo not shown) [Example 21]"
  targetDesc: "human 11β-HSD1 (Homo sapiens, UniProt P28845)"
  result: "7.00 to 8.00"
- compound: "CC(C)(Oc1ccc(Cl)cc1)C(=NC#N)NC1C2CC3CC1CC(S(C)(=O)=O)(C3)C2 (stereo not shown) [Example 19]"
  targetDesc: "human 11β-HSD1 (Homo sapiens, UniProt P28845)"
  result: "7.00 to 8.00"
- compound: "CC(C)(Oc1ccccc1)C(=NC#N)NC12CCC(C#N)(CC1)C2 [Example 83]"
  targetDesc: "human 11β-HSD1 (Homo sapiens, UniProt P28845)"
  result: "6.00 to 7.00"
- compound: "CC(C)(Oc1ccc(F)cc1F)/C(=N\\C#N)N[C@@H]1[C@@H]2C[C@@H]3C[C@H]1C[C@@](C#N)(C3)C2 [Example 52]"
  targetDesc: "human 11β-HSD1 (Homo sapiens, UniProt P28845)"
  result: "7.00 to 8.00"
- compound: "N#CN=C(COc1ccc(Cl)cc1)NC1C2CC3CC1CC(O)(C3)C2 (stereo not shown) [Example 7]"
  targetDesc: "human 11β-HSD1 (Homo sapiens, UniProt P28845)"
  result: "< 6.00"
- compound: "CC(C)(Oc1ccc(Cl)cc1)C(=NC#N)NC1C2CC3CC1CN(C3)C2 (stereo not shown) [Example 39]"
  targetDesc: "human 11β-HSD1 (Homo sapiens, UniProt P28845)"
  result: "< 6.00"
- compound: "CC(C)(Oc1ccccc1F)C(=NC#N)NC1C2CC3CC1CC(S(N)(=O)=O)(C3)C2 (stereo not shown) [Example 79]"
  targetDesc: "human 11β-HSD1 (Homo sapiens, UniProt P28845)"
  result: "7.00 to 8.00"
- compound: "CC(C)(OCc1ccc(C(F)(F)F)cc1)C(=NC#N)NC1C2CC3CC1CC(C(=O)O)(C3)C2 (stereo not shown) [Example 24]"
  targetDesc: "human 11β-HSD1 (Homo sapiens, UniProt P28845)"
  result: "7.00 to 8.00"

Data origin: patent US8507493B2
